Measured hERG current change (%, negative = inhibition) at 10uM, listed per entry.
# test.target: human ether-à-go-go-related gene (hERG) potassium channel (human);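 further: peak tail current of the secondary pulse compared with the same well before compound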
# test.name: primary screen, population patch clamp on CHO cells stably expressing hERG; higher = less effect of the substance
The campaign covered roughly 310,000 compounds. About 14,000 (4.5%) showed an effect of 50% or more. Effects have a minus sign here. The sample holds strong results, similar compounds and a random draw of the others, so the mix is not that of the screen.
measurement.kind: hERG current change (%, negative = inhibition) at 10uM (%)

molecule="COc1ccc(OC(C)c2nnc(N)s2)cc1 (stereo not shown)" unit_annotation=% observed_measurement=-71.4
molecule=CN1/C(=C/C(=O)c2nc(S(C)(=O)=O)ncc2Cl)C(C)(C)c2ccccc21 unit_annotation=% observed_measurement=-29.9
molecule=O=c1cccc(-c2ccccc2)[nH]1 unit_annotation=% observed_measurement=-2.53
molecule=Cc1ccc([N+](=O)[O-])cc1NC(=O)/C=C/C(=O)O unit_annotation=% observed_measurement=-2.79
molecule=O=C(O)C12C[C@H]3C[C@@H](C1)CC(n1ncc(N4CCN(c5ccccc5)CC4)c(Cl)c1=O)(C3)C2 unit_annotation=% observed_measurement=9.94
molecule=Cc1cc(=O)[nH]c(SCC(=O)Nc2ccc(C(=O)O)cc2)n1 unit_annotation=% observed_measurement=5.37
molecule="O=C(Nc1sc2c(c1C(=O)NCC(O)CO)CCCC2)c1ccccc1 (stereo not shown)" unit_annotation=% observed_measurement=6.02
molecule=O=C(Nc1ccccc1)C1=C[C@@H](c2ccccc2)C[C@@H](OCc2ccc(CO)cc2)O1 unit_annotation=% observed_measurement=2.2
molecule=CCCCc1cc(O)c(CCCC)c(O)c1 unit_annotation=% observed_measurement=-34.1
molecule=CCCC(=O)Nc1ccc(C)c(O)c1 unit_annotation=% observed_measurement=4.76

* * *

# test.target: human ether-à-go-go-related gene (hERG) potassium channel (human);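 further: peak tail current of the secondary pulse compared with the same well before compound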
# test.name: primary screen, population patch clamp on CHO cells stably expressing hERG; higher = less effect of the substance
Screen size: about 310,000 compounds; about 14,000 (4.5%) showed an effect of 50% or more. The effect is printed as a negative number. The full list was thinned out, with strong results kept by preference.
measurement.kind: hERG current change (%, negative = inhibition) at 10uM

compound=COc1ccc(CNc2nc(SCC(=O)NCc3ccco3)nc3ccccc23)cc1 observed_measurement=-68.9%
compound=O=C(Nc1ccccc1)C1CCN(C(=O)c2ccccc2)CC1 observed_measurement=4.62%
compound="O=C(Nc1ccccc1)C1CCCN(C(=O)c2ccc(Cl)cc2)C1 (centres unmarked)" observed_measurement=-9.92%
compound=O=C(Nc1ccccc1)C1CCN(C(=O)c2ccc(Br)cc2)CC1 observed_measurement=-59.3%
compound=O=C(NCc1cccnc1)c1cccc(-c2cc3ccccc3oc2=O)c1 observed_measurement=-63.9%
compound=O=C(Nc1ccc(Br)cc1)C1CCN(C(=O)c2ccco2)CC1 observed_measurement=-14%
compound=COc1ccc(CNc2ncnc3ccccc23)cc1 observed_measurement=21.7%
compound=O=C(NCc1cccnc1)c1ccc(-c2cc3ccccc3oc2=O)cc1 observed_measurement=4.65%
compound=O=C(O)C(=O)O.O=C(c1cccc(F)c1)N1CCN(Cc2c[nH]c3ccccc23)CC1 observed_measurement=-9.05%
compound=CCCn1cc(CN2CCC(Cc3ccccc3)(C(=O)OCC)CC2)c(C)n1 observed_measurement=-60.4%
compound="COc1ccc(C2SCC(=O)N2c2c(C)n(C)n(-c3ccccc3)c2=O)cc1OC (centres unmarked)" observed_measurement=13.6%
compound="O=C(c1ccccc1)N1CCN(C2c3cccc4cccc(c34)C2NS(=O)(=O)c2ccccc2)CC1 (centres unmarked)" observed_measurement=-21.9%
compound="O=C(O)CCCCC1SCC2NC(=O)NC21 (centres unmarked)" observed_measurement=3.46%
compound=Cn1c(=O)oc2cc(S(=O)(=O)CCC(=O)NCCc3ccccc3)ccc21 observed_measurement=7.46%
compound="O=C(c1ccc(F)cc1)N1CCCC(C(=O)N2CCCCC2)C1 (centres unmarked)" observed_measurement=16.5%
compound=CCOc1cc(NC(=S)NCC(C)C)c(OCC)cc1NC(=O)c1cccs1 observed_measurement=13.2%
compound=CCOC(=O)c1nc(NCc2cccc(OC)c2)c2ccccc2n1 observed_measurement=-13.5%
compound=CCSC1=NCCN1C(=O)c1c(-c2ccccc2Cl)noc1C observed_measurement=-20.6%
compound=O=C(c1cccc(NS(=O)(=O)c2cccc(F)c2)c1)N1CCN(c2ccccc2)CC1 observed_measurement=-8.41%
compound=CCCCN(C)C(=O)CSc1nc(NCc2ccc(OC)cc2)c2ccccc2n1 observed_measurement=-71%

* * *

Examples of molecules with documented hERG current change (%, negative = inhibition) at 10uM follow.
# test.target: human ether-à-go-go-related gene (hERG) potassium channel (human, UniProt Q12809);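 further: peak tail current of the secondary pulse compared with the same well before compound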
# Sequence (Q12809 whole entry, looked up): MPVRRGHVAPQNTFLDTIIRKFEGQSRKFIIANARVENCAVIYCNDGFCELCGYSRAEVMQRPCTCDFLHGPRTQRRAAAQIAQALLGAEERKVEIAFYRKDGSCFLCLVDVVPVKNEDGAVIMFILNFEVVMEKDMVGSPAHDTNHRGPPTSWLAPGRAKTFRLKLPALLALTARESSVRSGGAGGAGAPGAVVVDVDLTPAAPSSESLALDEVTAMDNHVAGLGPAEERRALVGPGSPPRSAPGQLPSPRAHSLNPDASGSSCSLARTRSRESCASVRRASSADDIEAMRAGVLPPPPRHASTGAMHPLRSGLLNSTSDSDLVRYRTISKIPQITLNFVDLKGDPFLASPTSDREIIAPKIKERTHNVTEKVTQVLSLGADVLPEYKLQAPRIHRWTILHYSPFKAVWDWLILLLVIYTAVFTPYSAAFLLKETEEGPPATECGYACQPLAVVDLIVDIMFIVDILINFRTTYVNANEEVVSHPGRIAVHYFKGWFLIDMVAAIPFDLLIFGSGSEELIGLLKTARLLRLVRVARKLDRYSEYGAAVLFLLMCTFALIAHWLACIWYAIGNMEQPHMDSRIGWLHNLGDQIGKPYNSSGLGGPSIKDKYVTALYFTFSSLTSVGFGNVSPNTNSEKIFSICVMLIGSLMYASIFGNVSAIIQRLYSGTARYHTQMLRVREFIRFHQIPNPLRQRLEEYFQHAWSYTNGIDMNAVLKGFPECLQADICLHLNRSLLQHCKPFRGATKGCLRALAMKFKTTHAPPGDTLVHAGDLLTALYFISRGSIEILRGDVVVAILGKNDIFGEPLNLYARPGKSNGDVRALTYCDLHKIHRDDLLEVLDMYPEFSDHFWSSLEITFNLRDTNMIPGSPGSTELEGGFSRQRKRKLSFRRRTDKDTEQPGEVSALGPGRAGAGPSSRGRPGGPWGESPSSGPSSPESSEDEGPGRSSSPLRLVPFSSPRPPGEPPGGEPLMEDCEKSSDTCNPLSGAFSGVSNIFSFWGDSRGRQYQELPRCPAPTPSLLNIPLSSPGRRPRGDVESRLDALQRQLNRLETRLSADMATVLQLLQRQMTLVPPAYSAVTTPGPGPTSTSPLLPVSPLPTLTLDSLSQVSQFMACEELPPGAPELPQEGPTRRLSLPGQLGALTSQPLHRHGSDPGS
# test.name: primary screen, population patch clamp on CHO cells stably expressing hERG; higher = less effect of the substance
The whole screen tested about 310,000 compounds, of which about 14,000 (4.5%) showed an effect of 50% or more. Effects have a minus sign here. The sample holds strong results, similar compounds and a random draw of the others, so the mix is not that of the screen.
measurement.kind: hERG current change (%, negative = inhibition) at 10uM (%)

smiles_representation=Cn1c(CN2CCCCC2)nc2cc(NS(=O)(=O)c3ccc(F)cc3)ccc21 observed_measurement=-54.2
smiles_representation=O=S(=O)(Nc1ccc2c(c1)nc1n2CCN(Cc2ccccc2)C1)c1ccccc1 observed_measurement=-40.1
smiles_representation=CC(C)C(=O)Nc1ccc2c(c1)nc(CCN1CCCCC1)n2C observed_measurement=-0.778
smiles_representation=O=S(=O)(Nc1ccc2c(c1)nc1n2CCN(Cc2ccccc2)C1)c1ccc(Cl)cc1 observed_measurement=-2.38
smiles_representation=Cc1cc(C(=O)NCc2ccco2)sc1C observed_measurement=16.2

* * *

# test.target: human ether-à-go-go-related gene (hERG) potassium channel (human);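 further: peak tail current of the secondary pulse compared with the same well before compound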
# test.name: primary screen, population patch clamp on CHO cells stably expressing hERG; higher = less effect of the substance
Among all 310,000 compounds or so, about 14,000 (4.5%) showed an effect of 50% or more. Effects have a minus sign here. The list comes from a sample in which strong results are over-represented; it also holds close analogues and randomly drawn compounds.
Consider the following compounds and their measured hERG current change (%, negative = inhibition) at 10uM readings.
measurement.kind: hERG current change (%, negative = inhibition) at 10uM (%)

compound=CCN(CC)CCCN(Cc1cc2cc3c(cc2[nH]c1=O)OCO3)C(=S)Nc1ccc(OC)cc1 test_target="human ether-à-go-go-related gene (hERG) potassium channel (human)" unit_annotation=% observed_measurement=-46.8
compound=Cc1cc2ccccc2c(=O)n1CC(=O)NCCC1=CCCCC1 test_target="human ether-à-go-go-related gene (hERG) potassium channel (human)" unit_annotation=% observed_measurement=8.01
compound=CCOC(=O)c1sc(SCC(=O)Nc2ccc(N(C)C)cc2)nc1N test_target="human ether-à-go-go-related gene (hERG) potassium channel (human)" unit_annotation=% observed_measurement=-13
compound=O=C(Nn1cc(C(=O)N2CCN(c3ccccc3F)CC2)c2ccccc2c1=O)c1cnccn1 test_target="human ether-à-go-go-related gene (hERG) potassium channel (human)" unit_annotation=% observed_measurement=2.84
compound=CC1(C)N([O-])C(c2ccccc2)=C[N+](=O)C1(C)C test_target="human ether-à-go-go-related gene (hERG) potassium channel (human)" unit_annotation=% observed_measurement=1.38
compound=COc1ccc(NC(=O)CN(C)S(=O)(=O)c2ccc3c(c2)n(C)c(=O)c(=O)n3C)cc1 test_target="human ether-à-go-go-related gene (hERG) potassium channel (human)" unit_annotation=% observed_measurement=14
compound="COc1ccc(NC(=O)CSC2=C(C#N)C(c3ccco3)C3=C(CCCC3=O)N2)c(OC)c1 (centres unmarked)" test_target="human ether-à-go-go-related gene (hERG) potassium channel (human)" unit_annotation=% observed_measurement=-33.2
compound=O=C(Cn1cncn1)N/N=C/c1cccc(Cl)c1 test_target="human ether-à-go-go-related gene (hERG) potassium channel (human)" unit_annotation=% observed_measurement=16.3
compound=COc1cc2cc(CN(Cc3cccnc3)C(=O)Nc3ccccc3)c(=O)[nH]c2cc1OC test_target="human ether-à-go-go-related gene (hERG) potassium channel (human)" unit_annotation=% observed_measurement=-21.8
compound=COc1ccc2[nH]c(=O)c(CN(CCCN(C)C)C(=O)Nc3ccc(F)cc3)cc2c1 test_target="human ether-à-go-go-related gene (hERG) potassium channel (human)" unit_annotation=% observed_measurement=-65.7
compound=CCCc1cc2c(cc1NS(=O)(=O)c1ccc(CCNC(C)=O)cc1)OCO2 test_target="human ether-à-go-go-related gene (hERG) potassium channel (human)" unit_annotation=% observed_measurement=-63
compound=CC(=O)NCCc1ccc(S(=O)(=O)NCc2ccc3c(c2)OCO3)cc1 test_target="human ether-à-go-go-related gene (hERG) potassium channel (human)" unit_annotation=% observed_measurement=2.45
compound=Cc1cc(C(=O)Nc2cccc(C)c2C)n(-c2ccccc2)n1 test_target="human ether-à-go-go-related gene (hERG) potassium channel (human)" unit_annotation=% observed_measurement=-11.7
compound=CN(C)CCN(Cc1ccco1)C(=O)c1cc2c(Cl)nc3ccccc3c2s1 test_target="human ether-à-go-go-related gene (hERG) potassium channel (human)" unit_annotation=% observed_measurement=-70.1
compound=COc1ccc(NC(=O)N(CCCN(C)C)Cc2cc3cc(OC)ccc3[nH]c2=O)cc1 test_target="human ether-à-go-go-related gene (hERG) potassium channel (human)" unit_annotation=% observed_measurement=-38.5
compound=CCN(CC)CCCN(Cc1cc2cc(OC)c(OC)cc2[nH]c1=O)C(=O)Nc1ccccc1 test_target="human ether-à-go-go-related gene (hERG) potassium channel (human)" unit_annotation=% observed_measurement=-13.8
compound="CCN1CCCC1CNC(=O)C(=O)NC1CC1 (centres unmarked)" test_target="human ether-à-go-go-related gene (hERG) potassium channel (human)" unit_annotation=% observed_measurement=10.3
compound=Cc1ccc(N=C2NC(=O)C(CO)(CO)S2)cc1 test_target="human ether-à-go-go-related gene (hERG) potassium channel (human)" unit_annotation=% observed_measurement=16.1
compound="CCOC(=O)c1[nH]c(C)c(/C(O)=C2\\C(=O)C(=O)N(CCCN(C)C)C2c2cccnc2)c1C (centres unmarked)" test_target="human ether-à-go-go-related gene (hERG) potassium channel (human)" unit_annotation=% observed_measurement=4.27
compound=Nc1c(C(=O)Nc2ccccc2)c2nc3ccccc3nc2n1CCCN1CCOCC1 test_target="human ether-à-go-go-related gene (hERG) potassium channel (human)" unit_annotation=% observed_measurement=18.7

Where do these numbers come from? They come from paper PMC4336329.
